IC50 values, listed per item
Biological target: T1, HBsAg of HBV genotype A (AY934772) (Hepatitis B virus)
T1 construct: captured from supernatant by horse polyclonal anti-HBsAg
Experiment: sandwich ELISA, captured HBsAg from culture supernatant

Solved cases (4 shown):
{"binder": "NOV3834 (antibody, human IgG1, kappa, V domains shown, Full human IgG1 (kappa) expressed in CHO cells) VH: QVQLVESGGGVVQPGRSLRLSCAASGFTFNRYGMHWVRQAPGKGLEWVAGIWHDGSHKYYADSLRGRFTISRDNAKNTLDLQLNRLRAEDTSVYYCVRQTNRGRLDDAFDIWGQGTMVTVSS VL: DIQMTQSPSSLSAAVGDRVTISCRASQTISSYLNWYQQKPGEAPKLLIYAASTLQSGVPSRFGGSGSGTDFTLTISSLQPEDSATYYCQQNYDTLWTFGQGTKVEIKR", "IC50": "2000 pM"}
{"binder": "NOV3357 (antibody, human IgG1, kappa, V domains shown, Full human IgG1 (kappa) expressed in CHO cells) VH: EVQLLESGGGLVQPGGSLRLSCAASGFTFSPHAMSWVRQAPGKGLEWVSAISDSGGSTHYADSVKGRFTISRDNSKNTLYLQMNSLRAEDTAVYYCARDDDGWSGYDYWFDYWGQGTLVTVSS VL: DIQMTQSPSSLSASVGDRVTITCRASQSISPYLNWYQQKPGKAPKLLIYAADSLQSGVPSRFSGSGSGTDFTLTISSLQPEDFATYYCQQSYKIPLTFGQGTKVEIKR", "IC50": "30 pM"}
{"binder": "NOV3540 (antibody, human IgG1, kappa, V domains shown, Full human IgG1 (kappa) expressed in CHO cells) VH: EVQLLESGGGLVQPGGSLRLSCAASGFTFSPHAMSWVRQAPGKGLEWVSAISDSGGSTHYADSVKGRFTISRDNSKNTLYLQMNSLRAEDTAVYYCARDDDAWSGYDYWFDYWGQGTLVTVSS VL: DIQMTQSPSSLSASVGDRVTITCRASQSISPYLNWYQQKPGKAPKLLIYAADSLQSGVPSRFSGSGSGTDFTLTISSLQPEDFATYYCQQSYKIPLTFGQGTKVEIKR", "IC50": "100 pM"}
{"binder": "NOV3842 (antibody, human IgG1, lambda, V domains shown, Full human IgG1 (lambda) expressed in CHO cells) VH: EVQLLESGGGLVQPGGSRRLSCAASGFTFSYYGMNWVRQAPGKGLEWVSGITNVGSITYYADTVKGRFSISRDNSKNTLFLQMNSLRAEDTAVYYCAKVGVRSSSGMWDLDYWGQGTLVTVSS VL: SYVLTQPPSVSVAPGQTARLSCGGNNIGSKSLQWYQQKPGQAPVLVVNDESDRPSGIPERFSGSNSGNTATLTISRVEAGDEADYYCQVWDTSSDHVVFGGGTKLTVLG", "IC50": "460 pM"}

Let us examine a further case.
Task item: GET /values?readout=IC50&item= NOV3833 (antibody, human IgG1, lambda, V domains shown, Full human IgG1 (lambda) expressed in CHO cells) VH: EMQVLESGGGLVQPGGSLRLSCAASGFTFHNYAMSWVRQVPGKGLEWVSSISGSGGSTYYADSVKGQFTISRDNSKNTLYLQMNSLRAEDTAVYYCAKSSILSGGHARVYGIDVWGQGTTVTVSS VL: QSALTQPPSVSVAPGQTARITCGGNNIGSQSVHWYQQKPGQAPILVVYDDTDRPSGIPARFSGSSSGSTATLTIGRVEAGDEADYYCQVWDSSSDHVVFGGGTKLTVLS
Reply: 560 pM

Recorded values, source patent US20240317840A1.
